Data credit: patent US20210340231A1

In this section, each of the binders is paired with its reported koff.
- target desc: T1, CTNI quality control recombinant protein (PK2-CTNI-1, 170120, produced by the applicant) (human, UniProt P19429 2-210, limits assumed)
- T1 construct: also called cardiac troponin I
- T1 sequence (P19429 2-210 limits assumed): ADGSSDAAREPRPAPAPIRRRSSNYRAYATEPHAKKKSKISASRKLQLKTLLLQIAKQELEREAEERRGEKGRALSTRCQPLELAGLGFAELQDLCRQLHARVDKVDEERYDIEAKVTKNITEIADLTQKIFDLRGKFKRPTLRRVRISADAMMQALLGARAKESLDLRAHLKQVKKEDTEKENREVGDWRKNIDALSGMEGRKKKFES
- assay notes: AMC sensor kinetics, antibody captured, cTnI analyte
Report as a plain number; the unit s⁻¹ is understood.

WT 1-3 (antibody, V domains shown, built as for Mutation 1) VH: EVQLQQSGAELVKPGASVKLSCTASGFNIKEYYMHWMKQRTEQGLDWIGRIEPEDGETKYAPEFQGKATITADTSSNTAYLQLSTLTSEDTAVYYCARYYTSYLPFVYWGQGTLVTASA VL: DVVMTQTPLSLSVSLGDQASISCRSSQSLLYSNKHTYLHWYLQKPGQSPKLLIFQLSQRFSGVPDRFSGSGSGTDFTLKINRVEAEDLGVYFCSNSTHIPYTFGSGTKLEIKR | 0.000348
WT 1-29 (antibody, V domains shown, built as for Mutation 1) VH: EVQLQQSGAELVKPGASVKLSCTASGFNLKEYYMHWMKQRTEQGLDWIGRIEPEDGETKYAPEFQGKATITADTSSNTAYLQLSTLTSEDTAVYYCARYYTSYVPFVYWGQGTLVTASA VL: DVVMTQTPLSLSVSLGDQASISCRSSQSLLYSNKHTYLHWYLQKPGQSPKLLIFQVSQRFSGVPDRFSGSGSGTDFTLKINRVEAEDLGVYFCSNSTHLPYTFGSGTKLEIKR | 0.00011
WT 1-50 (antibody, V domains shown, Built as for Mutation 1) VH: EVQLQQSGAELVKPGASVKLSCTASGFNLKEYYMHWMKQRTEQGLDWIGRIEPEDGETRYAPEFQGKATITADTSSNTAYLQLSTLTSEDTAVYYCARYYTSYLPFVYWGQGTLVTASA VL: DVVMTQTPLSLSVSLGDQASISCRSSQSLIYSNKHTYLHWYLQKPGQSPKLLIFQLSQRFSGVPDRFSGSGSGTDFTLKINRVEAEDLGVYFCSNSTHLPYTFGSGTKLEIKR | 0.000489

Let us move to another entry and its koff.
Incoming: Supply measured koff of WT 1-14 (antibody, V domains shown, built as for Mutation 1) VH: EVQLQQSGAELVKPGASVKLSCTASGFNIKEYFMHWMKQRTEQGLDWIGRIEPEDAETKYAPEFQGKATITADTSSNTAYLQLSTLTSEDTAVYYCARYYTSYIPFVYWGQGTLVTASA VL: DVVMTQTPLSLSVSLGDQASISCRSSQSLLYSNKHTYLHWYLQKPGQSPKLLIFQISQRFSGVPDRFSGSGSGTDFTLKINRVEAEDLGVYFCSNSTHIPFTFGSGTKLEIKR in your reply.
Outgoing: 0.000398
